# pIC50 measurements, system: Translocator protein (Rattus norvegicus)
# Sequence (P16257 whole entry, looked up): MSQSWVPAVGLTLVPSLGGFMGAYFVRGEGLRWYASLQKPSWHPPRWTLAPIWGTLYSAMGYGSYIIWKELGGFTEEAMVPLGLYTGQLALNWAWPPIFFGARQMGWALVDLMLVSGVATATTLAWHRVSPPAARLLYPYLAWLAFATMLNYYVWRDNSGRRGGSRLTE
Numbers only, as −log10 of the molar value.

{"molecule": "CCCCN(C)C(=O)Cn1c2nn(-c3ccccc3)c(=O)c-2c(C)c2ccccc21", "pIC50": 9.85}
{"molecule": "CCN(CC)C(=O)Cn1c2nc3ccccc3c(C)c2c(=O)n1-c1ccc(F)cc1", "pIC50": 5.64}
{"molecule": "CCCN(CCC)C(=O)Cn1c2nc3ccccc3c(C)c2c(=O)n1-c1ccc(Cl)cc1", "pIC50": 7.05}
{"molecule": "CCCCN(C)C(=O)Cn1c2nn(-c3ccc(F)cc3)c(=O)c-2c(C)c2ccccc21", "pIC50": 9.89}
{"molecule": "CCCCN(C)C(=O)Cn1c2nc3ccccc3c(C)c2c(=O)n1-c1ccc(F)cc1", "pIC50": 6.96}
{"molecule": "Cc1c2ccccc2nc2c1c(=O)n(-c1ccccc1)n2CC(=O)N(C)Cc1ccccc1", "pIC50": 6.06}
{"molecule": "Cc1c2ccccc2nc2c1c(=O)n(-c1ccccc1)n2CC(=O)N(C(C)C)C(C)C", "pIC50": 5.86}
{"molecule": "Cc1c2ccccc2nc2c1c(=O)n(-c1ccccc1)n2CC(=O)N(Cc1ccccc1)Cc1ccccc1", "pIC50": 5.46}

For each listed entry, give its pIC50.
1. CCCN(CCC)C(=O)Cn1c2nc3ccccc3c(C)c2c(=O)n1-c1ccc(F)cc1
2. CCCCN(CCCC)C(=O)Cn1c2nn(-c3ccccc3)c(=O)c-2c(C)c2ccccc21
3. Cc1c2ccccc2nc2c1c(=O)n(-c1ccc(Cl)cc1)n2CC(=O)N(C)c1ccc(Cl)cc1

[7.06, 9.47, 7.80]

For each listed entry, give its pIC50.
1. CCCCN(Cc1ccccc1)C(=O)Cn1c2nc3ccccc3c(C)c2c(=O)n1-c1ccccc1
2. Cc1c2ccccc2nc2c1c(=O)n(-c1ccccc1)n2CC(=O)N(Cc1ccccc1)C(C)C

[6.16, 6.52]
